System: RXF 393 renal
Assay: NCI-60 one-dose screen, 48 h (100 = growth as untreated, 0 = no growth, -100 = all killed)
Settings: 10 µM unless noted
Method: Cells are grown in 96 well plates and exposed to the test compound for 48 hours. Compounds are tested at a single concentration, which is 10^-5 M for most compounds. The reported endpoint is percent growth (GI% or GIPRCNT), where numbers from 0 - 100% represent growth inhibition, and numbers from -100% - 0 represent cell death. For example, a value of 40 represents 60% growth inhibition. A value of 0 means no net growth occurred over the course of the experiment. […]
Compounds without any hit were thinned out: in the full panel of roughly 83,000, 20% have a hit.
Let's look at some molecules and their measured growth.
Reported Endpoint: growth (%)

Molecule	Unit Info	Quantitative Readout
CCCSc1nc(NCCc2c[nH]c3ccccc23)c(C#N)c(-c2ccc(F)cc2)n1	%	24.8
Cc1cc(=O)oc2cc(OCCCOc3ccc(/C=C/C(=O)Nc4ccccc4N)cc3)ccc12	%	49.5
COc1ccc(-c2ccc(SCC(=O)Nc3ccc(S(N)(=O)=O)cc3Br)nn2)cc1	%	89.2
Cc1ccc(C(=O)CSc2nc3ccc(F)cc3c(=O)n2-c2ccc(Cl)cc2)cc1	%	-10.6
O=C(c1ccc(OCCN2CCOCC2)cc1)C1[C@H](c2ccc(Cl)cc2)[C@@H](c2ccccc2)NC12C(=O)Nc1ccc(Br)cc12 (some centres not stated)	%	-1.59
Cc1cccc(Nc2nc3ccccc3nc2/C=C/c2ccc(F)cc2)c1	%	98
Cc1ccc(-n2c(-c3cc4ccccc4nc3Cl)noc2=O)cc1	%	92.4
CN(C)CCOc1ccc(C(=O)C2[C@H](c3ccc(Cl)cc3)[C@@H](c3ccccc3)NC23C(=O)Nc2ccccc23)cc1 (some centres not stated)	%	50.4
C=C1CCC2C3(C)COC(c4cccc(F)c4)OC3CCC2(C)C1C/C=C1/C(=O)OCC1O (configuration not stated)	%	-70.5
Cc1ccc(NC(=O)[C@]23CCC(C)(C)CC2C2=CCC4[C@@]5(C)C[C@@H](O)[C@H](O)[C@@](C)(CO)C5CC[C@@]4(C)[C@]2(C)CC3)cc1 (some centres not stated)	%	-38.6
Cc1sc(C(NC(=O)OCCn2c([N+](=O)[O-])cnc2C)C(F)(F)Cl)nc1-c1ccc(OC(F)(F)F)cc1 (configuration not stated)	%	-88.6
CC(=O)/C=C/c1cccc2c1C(=O)NC(C)(c1cc3cc(Br)ccc3oc1=O)N2 (configuration not stated)	%	-12.9
CC12CC[C@@H]3[C@]4(C)COC(c5c(F)cccc5F)O[C@@H]4CC[C@@]3(C)[C@@H]1CC(C1=CCOC1=O)O2 (some centres not stated)	%	83.8
CCCS(=O)(=O)N1CCCC(C(=O)Nc2nc3ccc(NC(=O)c4ccc(F)c(OC)c4F)cc3s2)C1 (configuration not stated)	%	8.45
COc1cc(/C=C/C(=O)c2ccc(C)cc2)ccc1Oc1nc(Nc2ccc(F)cc2)nc(N(C)C)n1	%	47.8
COc1cc2oc(-c3cccc(C(=O)Nc4ccc(Cl)cc4)c3)cc(=O)c2c(OCC(=O)N[C@@H](Cc2ccccc2)C(=O)O)c1OC	%	111
NS(=O)(=O)c1ccc(-n2cc(-c3cccc(NC(=O)c4cc(Cl)cc(Cl)c4)c3)nn2)cc1	%	87.9

---

Tested on: NCI-H322M lung
Experiment: NCI-60 one-dose screen, 48 h
Details: 10 µM unless noted
The panel holds about 83,000 compounds, 20% with a hit somewhere; the sample as a whole holds those more often. Active and inactive are the calls of the source. How the source made its calls: active means growth percent below 10; inactive means the rest.
Classes used: active, inactive

> print(dat)
                                    molecule  assigned.class
 1  NS(=O)(=O)c1ccc(N=Nc2c(O)n(CC(=O)Nc3ccccc3Cl)c3ccccc23)cc1        inactive
 2  CC1(c2cc3cc(Br)ccc3oc2=O)NC(=O)c2c(/C=C/C(=O)OC3CC4CCC3(C)C4(C)C)cccc2N1 (stereo not drawn)        inactive
 3  N#Cc1c(-c2cccc(O)c2O)cc(-c2ccc3ccccc3c2)[nH]c1=O        inactive
 4  Cc1ccc(/C=C/c2n(Cc3ccc4ccccc4c3)c3ccccc3[n+]2Cc2ccc3ccccc3c2)cc1          active
 5  COc1cc2c3c(n(CCCN4CCC[C@@H]4CO)c(=O)c2cc1OC)-c1cc2c(cc1C3=O)OCO2          active
 6  COc1cc(/C=C/C(=O)c2nnn(-c3ccc(Cl)cc3)c2C)cc(OC)c1OC        inactive
 7  CC1=C(C#N)C2=NNCC(c3ccccc3)=NN2C(c2ccccc2)=C1        inactive
 8  C=C1CC[C@@H]2[C@]3(C)COC(c4ccccc4)O[C@@H]3CC[C@@]2(C)[C@@H]1C/C=C1/C(=O)OCC1OC(C)=O (stereo partly drawn)        inactive
 9  CCCCCCn1c(O)c(N=Nc2nc(-c3cc4ccccc4oc3=O)cs2)c2ccccc21        inactive
10  CCCSc1nc(Nc2ccc(S(N)(=O)=O)cc2)c(C#N)c(-c2cc(OC)c(OC)c(OC)c2)n1        inactive
11  NS(=O)(=O)c1ccc(-n2cc(-c3cccc(NC(=O)c4ccc(Cl)c(C(F)(F)F)c4)c3)nn2)cc1        inactive
12  Cc1ccc(-c2nnc3ccc(N/N=C/c4ccccc4)nn23)cc1        inactive
13  COc1ccc2[nH]c(=O)c(CSc3nccc(-c4ccc(OC)c(OC)c4)n3)cc2c1        inactive
14  Cc1nc(Nc2ccccn2)sc1C(=O)CC(SCC(=O)Nc1ccc(Cl)cc1)c1ccccc1F (stereo not drawn)        inactive
15  O=C(/C=C/c1cccc(OCc2ccccc2)c1)c1nc2ccccc2[nH]1        inactive
16  N/C(=N\c1nc2ccccc2s1)NC(=O)Nc1c(Cl)cccc1Cl        inactive
17  C(=C\c1cc(/C=C/c2ccccc2)c2ccccc2n1)/c1ccccc1        inactive
18  CCS(=O)(=O)N1CCCC(C(=O)Nc2nc3ccc(NC(=O)c4ccc(F)c(OC)c4F)cc3s2)C1 (stereo not drawn)        inactive
19  Cn1cc(NC(=O)c2cc(NC(=O)c3ccc(C#Cc4ccccc4)cc3)cn2C)cc1C(=O)NCCCN1CCOCC1        inactive
20  COc1ccc(C(=O)/C=C/c2cccc(Br)c2)cc1S(N)(=O)=O          active
21  O=C(N=Nc1c(O)[nH]c2ccc(Cl)cc12)c1ccc2nc(-c3ccccc3)[nH]c2c1        inactive
22  Cn1cc(-c2cc(N)n3nc(-c4cn(C)c5ccccc45)cc3n2)c2cc(Cl)ccc21          active
23  N#Cc1c(-c2cccc3ccccc23)cc(-c2cccc(OCC(=O)O)c2)[nH]c1=O        inactive
24  CCN(CC)c1ccc(/C=N/Nc2nc(-c3ccc(Br)cc3)cs2)c(O)c1        inactive
25  O=C(C1=CNC(=S)NC1c1ccc(O)cc1)c1cc2ccccc2oc1=O (stereo not drawn)        inactive
26  Cc1ccc(-n2c(-c3cc4ccccc4nc3Cl)noc2=O)cc1        inactive
27    O=C1N/C(=N\c2nccs2)S/C1=C\C=C/c1ccccc1        inactive
28  Cc1ccc(C2=NN(c3nc(-c4cc5ccccc5oc4=O)cs3)C(c3ccc(C)cc3)C2)cc1 (stereo not drawn)        inactive
29  C#CCOc1cc(N(CC)CC)ccc1C(C(=O)NC(C)(C)C)N(C(=O)C1CCc2cc(F)ccc2O1)c1ccc(F)cc1 (stereo not drawn)        inactive
30  Cc1cc2nc3c([nH]c2cc1C)c1ccc(=O)cc1n3CCN(C)C        inactive
31  CC(=O)Nc1cccc(Nc2nc(NCc3ccccc3)c3ccccc3n2)c1          active
32  COc1cc2oc(-c3cccc(C(=O)Nc4ccc(Cl)cc4)c3)cc(=O)c2c(OCCNC(=O)[C@H](CCC(=O)OC(C)(C)C)NC(=O)OC(C)(C)C)c1OC        inactive
33  Cc1ccc(S(=O)(=O)c2nc(S(=O)(=O)c3ccc(C)cc3)c(N3CCN(C)CC3)s2)cc1        inactive
34  COc1ccc(C2(SCCNCc3cc(N(C)C)ccn3)c3ccccc3C=Cc3ccccc32)cc1        inactive
35  Cn1cc(-c2nc(N)nnc2-c2c[nH]c3ccc(Br)cc23)c2cccnc21        inactive
36  COc1ccc(C(=O)/C=C/c2cccc3ccccc23)cc1S(N)(=O)=O        inactive
37  CC1=C(C(=O)OCc2ccccc2)C(c2c(O)cc(O)cc2O)n2c(nc3ccccc32)N1 (stereo not drawn)        inactive
38  NS(=O)(=O)c1ccc(CCNC(=O)CSc2ccc(-c3ccc(Br)cc3)nn2)cc1        inactive
